Documented Tmax across a set of compounds
Test: Pharmacokinetic evaluation after intravenous or gavage administration to dogs
Assay type: in vivo, Beagle dogs
Details: beagle, dog, plasma, intravenous drug delivery group, dose 1 mg/kg

Guide cases for Tmax, answers given:
1. O=S(=O)(c1cccc(F)c1)n1cc(C(F)F)c2c(N3CCNCC3)cccc21: 23.3 min
2. O=S(=O)(c1ccccc1Cl)n1cc(C(F)F)c2c(N3CCNCC3)cccc21: 484 min

Consider the record given below.
Return Tmax (reported value) for this compound: `O=S(=O)(c1ccccc1F)n1cc(C(F)F)c2c(N3CCNCC3)cccc21`
11.6 min

---

Assay: Pharmacokinetic evaluation after intravenous or gavage administration to dogs
Assay type: in vivo, Beagle dogs
Details: beagle, dog, plasma, po, gavage group, dose 5 mg/kg
property-label: MRT inf (h)
# unit: h | format: bare number

Return MRT inf (reported value) for this molecule: O=S(=O)(c1cccc(F)c1)n1cc(C(F)F)c2c(N3CCNCC3)cccc21 [Example 5]
15

---

Documented Tmax across a set of compounds
Experiment: Pharmacokinetic evaluation after intravenous or gavage administration to dogs
Assay type: in vivo, Beagle dogs
Conditions: beagle, dog, plasma, po, gavage group, dose 2.5 mg/kg
# unit: h | format: bare number

1) O=S(=O)(c1ccccc1F)n1cc(C(F)F)c2c(N3CCNCC3)cccc21: 3.33

Consider the record given below.
Return Tmax (reported value) for this compound: `O=S(=O)(c1ccccc1Cl)n1cc(C(F)F)c2c(N3CCNCC3)cccc21`
4.67

---

Assay: Pharmacokinetic evaluation after intravenous or gavage administration to dogs
Format: in vivo, Beagle dogs
Settings: beagle, dog, plasma, po, gavage group, dose 5 mg/kg
property-label: Tmax

Return Tmax (reported value) for this compound: `O=S(=O)(c1cccc(F)c1)n1cc(C(F)F)c2c(N3CCNCC3)cccc21`
6 h

---

Assay: Pharmacokinetic evaluation after intravenous or gavage administration to dogs
Format: in vivo, Beagle dogs
Settings: beagle, dog, plasma, intravenous drug delivery group, dose 1 mg/kg
property-label: half-life (h)
# unit: h | format: bare number

Guide cases for half-life, answers given:
1) O=S(=O)(c1cccc(F)c1)n1cc(C(F)F)c2c(N3CCNCC3)cccc21: 6.49
2) O=S(=O)(c1ccccc1F)n1cc(C(F)F)c2c(N3CCNCC3)cccc21: 6.43

Return half-life (reported value) for this compound: `O=S(=O)(c1ccccc1Cl)n1cc(C(F)F)c2c(N3CCNCC3)cccc21`
6.26

---

Assay: Pharmacokinetic evaluation after intravenous or gavage administration to dogs
Assay type: in vivo, Beagle dogs
Details: beagle, dog, plasma, po, gavage group, dose 2.5 mg/kg
Documented AUC(0-inf) across a set of compounds
# unit: ng·h/mL | format: bare number

1) O=S(=O)(c1ccccc1F)n1cc(C(F)F)c2c(N3CCNCC3)cccc21: 3160

Consider the record given below.
Return AUC(0-inf) (reported value) for this compound: `O=S(=O)(c1ccccc1Cl)n1cc(C(F)F)c2c(N3CCNCC3)cccc21`
17600

---

Experiment: Pharmacokinetic evaluation after intravenous or gavage administration to dogs
Format: in vivo, Beagle dogs
Conditions: beagle, dog, plasma, po, gavage group, dose 5 mg/kg
property-label: Cmax (ng/mL)
# unit: ng/mL | format: bare number

Return Cmax (reported value) for this compound: `O=S(=O)(c1cccc(F)c1)n1cc(C(F)F)c2c(N3CCNCC3)cccc21`
347

---

Target: UniProtKB P50406
Sequence (P50406 whole entry): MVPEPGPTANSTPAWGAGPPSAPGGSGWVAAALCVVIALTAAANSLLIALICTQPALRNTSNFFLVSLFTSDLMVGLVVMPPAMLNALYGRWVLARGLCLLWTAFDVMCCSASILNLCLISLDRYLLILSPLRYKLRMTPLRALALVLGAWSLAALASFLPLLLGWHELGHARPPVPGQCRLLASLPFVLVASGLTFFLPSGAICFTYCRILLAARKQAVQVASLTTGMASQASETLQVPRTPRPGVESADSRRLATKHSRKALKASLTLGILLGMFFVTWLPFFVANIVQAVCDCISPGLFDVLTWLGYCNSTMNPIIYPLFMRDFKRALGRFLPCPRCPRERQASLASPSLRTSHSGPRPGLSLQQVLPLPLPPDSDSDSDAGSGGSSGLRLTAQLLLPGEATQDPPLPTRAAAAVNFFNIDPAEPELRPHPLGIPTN
property-label: pKi
In simple prose, pKi is minus the logarithm base ten of a concentration in moles per litre.

1) O=S(=O)(c1cccc(F)c1)n1cc(C(F)F)c2c(N3CCNCC3)cc(Cl)cc21 [Example 27]: 8.72
2) O=S(=O)(c1cccc(Br)c1)n1cc(C(F)F)c2cc(N3CCNCC3)ccc21 [Example 19]: 7.89
3) O=S(=O)(c1ccccc1Br)n1cc(C(F)F)c2cc(N3CCNCC3)ccc21 [Example 14]: 7.70

Consider the record given below.
Name the value of pKi reported for O=S(=O)(c1ccccc1)n1cc(C(F)F)c2c(N3CCNCC3)cccc21 [Example 1] when tested on UniProtKB P50406.
8.80
